Test system: Cotton (Gossypium indicum)
assay-protocol: Upland Foliar Application Test, crop injury
Type: in vivo
measurement-setup: 30 g ai/a; foliar application at 2-3 leaf stage, emulsion; observed on the 30th day
# Crop injury Cotton (Gossypium indicum) annotations

Worked cases, answers included:
>  <compound>
COc1cc(OC)nc(Oc2ccccc2C=O)n1 [B, reference compound]

>  <target-or-system>
Cotton (Gossypium indicum)

>  <meas-value>
5 (0-5 (Death))

$$$$
>  <compound>
CCCCOC(OCCCC)c1ncccc1Oc1nc(OC)cc(OC)n1

>  <target-or-system>
Cotton (Gossypium indicum)

>  <meas-value>
0 (91-100 (No damages))

$$$$
>  <compound>
COc1cc(OC)nc(Oc2cccnc2C2OCCO2)n1

>  <target-or-system>
Cotton (Gossypium indicum)

>  <meas-value>
0 (91-100 (No damages))

$$$$
>  <compound>
CCOC(OCC)c1ncccc1Oc1nc(OC)cc(OC)n1

>  <target-or-system>
Cotton (Gossypium indicum)

>  <meas-value>
0 (91-100 (No damages))

$$$$
>  <compound>
COc1cc(OC)nc(Oc2cccnc2C2OCC(C)O2)n1 (stereo not shown)

>  <target-or-system>
Cotton (Gossypium indicum)

>  <meas-value>
0 (91-100 (No damages))

$$$$
>  <compound>
CCOC(=O)c1ncccc1Oc1nc(OC)cc(OC)n1 [A, reference compound]

>  <target-or-system>
Cotton (Gossypium indicum)

>  <meas-value>
5 (0-5 (Death))

$$$$
>  <compound>
COc1cc(OC)nc(Oc2cccnc2C=O)n1

>  <target-or-system>
Cotton (Gossypium indicum)

>  <meas-value>
0 (91-100 (No damages))

$$$$
>  <compound>
COc1cc(OC)nc(Oc2cccnc2C(OC)OC(C)C)n1 (stereo not shown)

>  <target-or-system>
Cotton (Gossypium indicum)

>  <meas-value>
0 (91-100 (No damages))

$$$$

Query: State its Crop injury Cotton (Gossypium indicum): `COc1cc(OC)nc(Oc2cccnc2C2OCCCO2)n1`
Result: 0 (91-100 (No damages))

Query: Specify measured Crop injury Cotton (Gossypium indicum) for `COc1cc(OC)nc(Oc2cccnc2C(OC)OC)n1` .
Result: 0 (91-100 (No damages))
